- assay.system: IDH1 R132H (Homo sapiens, UniProt O75874, R132H)
- Sequence (O75874 whole entry R132H): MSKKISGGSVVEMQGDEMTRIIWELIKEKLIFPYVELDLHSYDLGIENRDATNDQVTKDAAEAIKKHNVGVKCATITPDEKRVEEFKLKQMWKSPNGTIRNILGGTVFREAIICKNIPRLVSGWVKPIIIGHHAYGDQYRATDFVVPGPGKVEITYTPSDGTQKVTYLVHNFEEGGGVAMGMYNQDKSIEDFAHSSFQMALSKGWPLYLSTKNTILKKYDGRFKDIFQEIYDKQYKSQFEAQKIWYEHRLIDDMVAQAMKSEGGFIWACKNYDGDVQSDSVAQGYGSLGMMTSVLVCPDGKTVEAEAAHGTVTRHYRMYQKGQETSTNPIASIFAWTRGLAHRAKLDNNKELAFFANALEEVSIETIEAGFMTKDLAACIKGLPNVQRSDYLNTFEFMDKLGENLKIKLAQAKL
- test.name: In vitro NADPH depletion assay for IDH1m R132H inhibitors
- stated.conditions: enzyme, diaphorase/resazurin readout, read-out: IDH R132H IC50
measured.parameter: IC50

Reference set (2 entries):
molecule="COC(=O)NCC(=O)N(c1cccc(F)c1)[C@H](C(=O)N[C@H]1CCCCC1(F)F)c1ccccc1Cl [Compound 82]" result="≤ 100 nM"
molecule="O=C(NC1CCCCC1)C(c1ccc(F)cc1F)N(C(=O)Cn1cnc(Cl)c1Cl)c1cccc(F)c1 (stereo not shown) [Compound 29]" result="≤ 100 nM"

Lab note: each molecule below needs its IC50 filled in.
1. N#Cc1cccc(N(C(=O)Cn2cnc(Cl)c2Cl)C(C(=O)NC2CCCCC2)c2ccccc2Cl)c1 (stereo not shown) [Compound 27]
2. COC(=O)NCC(=O)N(c1cccc(F)c1)C(C(=O)NC1CC(F)(F)C1)c1c(F)cccc1F (stereo not shown) [Compound 78]
3. Cc1nccn1CC(=O)N(c1cccc(F)c1)C(C(=O)NC1CC(F)(F)C1)c1ccccc1Cl (stereo not shown) [Compound 59]
4. N#Cc1ncn(CC(=O)N(c2cccc(F)c2)C(C(=O)NC2CCCCC2)c2ccccc2Cl)c1C#N (stereo not shown) [Compound 22]
5. N#Cc1ccnc(N2c3ccccc3C[C@H]2C(=O)N(c2cc(F)cc(F)c2)C(C(=O)NC2CC(F)(F)C2)c2ccccc2Cl)c1 (stereo partly shown) [Compound 119]

1. 100 to 500 nM
2. 500 to 1000 nM
3. 100 to 500 nM
4. 100 to 500 nM
5. 100 to 500 nM
